Test system: SaR1: Meticillin-Resistant Staphylococcus aureus without Associated Resistance
Experiment: Antibiogram, MIC by the VITEK 2 system
Assay type: cell-based
Conditions: SaR1; Cc EUCAST 2011
RESULT_TYPE: EUCAST Interpretation

Cc1onc(-c2ccccc2)c1C(=O)N[C@@H]1C(=O)N2[C@@H]1SC(C)(C)[C@@H]2C(=O)O ... Resistant
CN[C@H](CC(C)C)C(=O)N[C@H]1C(=O)N[C@@H](CC(N)=O)C(=O)N[C@H]2C(=O)N[C@H]3C(=O)N[C@H](C(=O)N[C@H](C(=O)O)c4cc(O)cc(O)c4-c4cc3ccc4O)[C@H](O)c3ccc(c(Cl)c3)Oc3cc2cc(c3O[C@@H]2O[C@H](CO)[C@@H](O)[C@H](O)[C@H]2O[C@H]2C[C@](C)(N)[C@H](O)[C@H](C)O2)Oc2ccc(cc2Cl)[C@H]1O ... Susceptible
NC[C@H]1O[C@H](O[C@H]2[C@H](O)[C@@H](O[C@H]3O[C@H](CO)[C@@H](O)[C@H](N)[C@H]3O)[C@H](N)C[C@@H]2N)[C@H](N)C[C@@H]1O ... Susceptible
CC(=O)NC[C@H]1CN(c2ccc(N3CCOCC3)c(F)c2)C(=O)O1 ... Susceptible
C[C@@H]1O[C@@H]1P(=O)(O)O ... Susceptible

Below are 3 compounds. Give each one its EUCAST Interpretation.
1. CC[C@H]1OC(=O)[C@H](C)[C@@H](O[C@H]2C[C@@](C)(OC)[C@@H](O)[C@H](C)O2)[C@H](C)[C@@H](O[C@@H]2O[C@H](C)C[C@H](N(C)C)[C@H]2O)[C@](C)(O)C[C@@H](C)C(=O)[C@H](C)[C@@H](O)[C@]1(C)O
2. CC(=O)O[C@H]1C[C@@]2(C)[C@@H](C[C@@H](O)[C@H]3[C@@]4(C)CC[C@@H](O)[C@@H](C)[C@@H]4CC[C@@]32C)/C1=C(\CCC=C(C)C)C(=O)O
3. CC1(C)S[C@@H]2[C@H](NC(=O)Cc3ccccc3)C(=O)N2[C@H]1C(=O)O

Response:
1. Susceptible
2. Susceptible
3. Resistant
